Tested on: mice
Experiment: Acute toxicity test (Experiment 8)
Conditions: oral, highest possible doses

- sample.smiles: "OC[C@H]1O[C@H](O[C@H]2O[C@H](CO)[C@@H](O[C@H]3O[C@H](CO)[C@@H](O[C@H]4O[C@H](CO)[C@@H](O[C@H]5O[C@H](CO)[C@@H](O[C@H]6O[C@H](CO)[C@@H](O[C@H]7O[C@H](CO)[C@@H](O)[C@H](O)[C@H]7O)[C@H](O)[C@H]6O)[C@H](O)[C@H]5O)[C@H](O)[C@H]4O)[C@H](O)[C@H]3O)[C@H](O)[C@H]2O)[C@H](O)[C@@H](O)[C@@H]1O"
  tested.target: "mice"
  Mortality: "no mouse died"
- sample.smiles: "OC[C@H]1O[C@H](O[C@H]2O[C@H](CO)[C@@H](O[C@H]3O[C@H](CO)[C@@H](O[C@H]4O[C@H](CO)[C@@H](O[C@H]5O[C@H](CO)[C@@H](O[C@H]6O[C@H](CO)[C@@H](O)[C@H](O)[C@H]6O)[C@H](O)[C@H]5O)[C@H](O)[C@H]4O)[C@H](O)[C@H]3O)[C@H](O)[C@H]2O)[C@H](O)[C@@H](O)[C@@H]1O"
  tested.target: "mice"
  Mortality: "no mouse died"
- sample.smiles: "OC[C@H]1O[C@H](O[C@H]2O[C@H](CO)[C@@H](O[C@H]3O[C@H](CO)[C@@H](O)[C@H](O)[C@H]3O)[C@H](O)[C@H]2O)[C@H](O)[C@@H](O)[C@@H]1O"
  tested.target: "mice"
  Mortality: "no mouse died"

Data provenance: patent US5681826A
